experiment: chemical genetic growth profiling, strain panel (AID 1159580);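 further: tested at 20 µM; growth read once vehicle control cultures reached saturation at 30 °C; lower values mean less growth of the strain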; conditions: S. cerevisiae deletion strains, growth OD, locus YJR075W, strain HOC1
Out of some 5,500 compounds screened, about 2,000 (36%) were called active. About 18% were inconclusive and are not listed. No stated cut-off is given here; in the data, active means normalized growth mostly below about 0.91 (no sharp cut-off); inconclusive means no clear call, values can overlap the other calls; inactive means mostly above about 0.92. The list shows a part of the results.
Classes used: Y (active), N (inactive)

>>> print(df.to_string())
                                    compound  class_name
 0       COc1ccccc1NC(=S)NCCc1ccc(OC)c(OC)c1           N
 1       O=c1c(O)c(-c2ccccc2)oc2ccc3occc3c12           Y
 2       Cc1cc2c(cc1C)CSC(C)(c1ccc(F)cc1)SC2           N
 3            O=c1c(O)c(-c2ccccc2)oc2ccccc12           N
 4  NC1CCc2cc(O)c(O)cc2C1 (configuration not stated)           N
 5   Oc1cc2c(cc1O)[C@H]1c3ccccc3CN[C@@H]1CC2           Y
 6  COc1ccc2c(c1)C13CCCCC1C(C2)N(C)CC3 (configuration not stated)           N
 7  O=C1C(=O)c2ccccc2C(O)=C1C1CCC(c2ccc(Cl)cc2)CC1 (configuration not stated)           N
 8                 N/C(=N/O)c1cnccc1C(F)(F)F           N
 9         O=c1c(O)c(-c2ccccc2)oc2cc(O)ccc12           Y
10         CC(C)Cn1c(=O)n(C)c(=O)c2[nH]cnc21           N
11  COC(=O)C(Cc1c[nH]c2ccccc12)NC(=O)c1c(Cl)cccc1Cl (configuration not stated)           N
